Tested on: MOLM1 and UCSD/AML1 (averaged)
Assay Details: cell viability relative to DMSO control (POC); higher = less growth inhibition
Condition Summary: 1 µM; 72 h
Structures can show the parent of a compound that is named as a salt. The whole screen tested about 2,100 compounds, of which about 180 (8.6%) showed an effect of 50% or more. Many of the other results were omitted from the sample, so strong results are more common in it than they were.
Quick list: cell viability per entry.

Compound: O=C(O)CCCCCCCCCCCC[C@@H]1C=CCC1
Value Unit: %
cell viability: 93.9
//
Compound: COc1ccc(-c2cc(=O)c3c(OC)c(OC)c(OC)c(OC)c3o2)cc1
Value Unit: %
cell viability: 89.9
//
Compound: C[C@@H](N)[C@H]1CC[C@H](C(=O)Nc2ccncc2)CC1
Value Unit: %
cell viability: 102
//
Compound: CC(C)CCC[C@@H](C)[C@H]1CC[C@H]2[C@@H]3C(=O)C=C4C[C@@H](O)CC[C@]4(C)[C@H]3CC[C@]12C
Value Unit: %
cell viability: 95.7
//
Compound: C[C@]1(c2nc3c(C(N)=O)cccc3[nH]2)CCCN1
Value Unit: %
cell viability: 101
//
Compound: Cc1cc(O)cc(O)c1C(=O)O
Value Unit: %
cell viability: 115
//
Compound: CC1=CCc2c(cc3oc(C)cc(=O)c3c2O)OC1
Value Unit: %
cell viability: 90.4
//
Compound: CCNC(=O)c1noc(-c2cc(C(C)C)c(O)cc2O)c1-c1ccc(CN2CCOCC2)cc1
Value Unit: %
cell viability: 2.13
//
Compound: CC(C)CC(NC(=O)[C@H](C)N)C(=O)O (mixture of isomers)
Value Unit: %
cell viability: 105
//
Compound: CCCCC(CC)CN=C(N)N=C(N)NCCCCCCNC(N)=NC(N)=NCC(CC)CCCC (stereo not given)
Value Unit: %
cell viability: 7.07
//
Compound: CC(C)CC(=O)Nc1n[nH]c2c1CN(C(=O)C1CCN(C)CC1)C2(C)C
Value Unit: %
cell viability: 49.4
//
Compound: C=C1CCC2C(CC2(C)C)C(=O)CCC1O (stereo not given)
Value Unit: %
cell viability: 104
//
Compound: CC1(C)[C@@H](O[C@H]2O[C@H](C(=O)O)[C@@H](O)[C@H](O)[C@H]2O[C@@H]2O[C@H](C(=O)O)[C@@H](O)[C@H](O)[C@H]2O)CC[C@]2(C)[C@H]3C(=O)C=C4[C@@H]5C[C@@](C)(C(=O)O)CC[C@]5(C)CC[C@@]4(C)[C@]3(C)CC[C@@H]12
Value Unit: %
cell viability: 96.4
//
Compound: C=CC(C)(O)CCC1C(=C)CC(O)C2C(C)(C)CCCC12C (stereo not given)
Value Unit: %
cell viability: 105
//
Compound: CC[C@]1(O)C[C@@H]2CN(CCc3c([nH]c4ccccc34)[C@@](C(=O)OC)(c3cc4c(cc3OC)N(C)[C@H]3[C@@](O)(C(=O)OC)[C@H](OC(C)=O)[C@]5(CC)C=CCN6CC[C@]43[C@@H]65)C2)C1
Value Unit: %
cell viability: 8.43
//
Compound: Cc1cc(O)c2c(c1)C(=O)c1cccc(O)c1C2=O
Value Unit: %
cell viability: 115
//
Compound: COc1ccc(CC(=O)c2ccc(O)cc2O)cc1
Value Unit: %
cell viability: 107
//
Compound: CC(=O)c1c(O)cc(O)cc1O
Value Unit: %
cell viability: 106
//
Compound: O=C(Nc1c[nH]nc1-c1nc2ccc(CN3CCOCC3)cc2[nH]1)NC1CC1
Value Unit: %
cell viability: 17.5
//
Compound: CC(C)=CCC/C(C)=C/COc1ccc2ccc(=O)oc2c1
Value Unit: %
cell viability: 92.6
//
Compound: O=c1c(O)cc([C@H]2Oc3cc(O)cc(O)c3C[C@H]2O)cc2c([C@H]3Oc4cc(O)cc(O)c4C[C@H]3O)cc(O)c(O)c12
Value Unit: %
cell viability: 104
//
Compound: CC(=O)O[C@H]1CC[C@]2(C)C3=C(CC[C@H]2C1(C)C)[C@]1(C)CC[C@H]([C@H](C)CCC=C(C)C)[C@@]1(C)CC3
Value Unit: %
cell viability: 94.1
//
Compound: COc1cc(OC)c2c(=O)cc(-c3ccccc3)oc2c1
Value Unit: %
cell viability: 90.2
//
Compound: Nc1nccc(Oc2ccc(NC(=O)c3c[nH]cc(-c4ccc(F)cc4)c3=O)cc2F)c1Cl
Value Unit: %
cell viability: 83.2
//
Compound: CC(=O)O[C@H]1C[C@@H](OC(C)=O)C(C)(C)C2CC(=O)[C@]3(C)C(CC[C@@]4(C)[C@H](C(=O)O)OC(=O)C5OC543)[C@]21C (stereo not given in full)
Value Unit: %
cell viability: 89.8
//
Compound: OC[C@@H](O)[C@@H](O[C@@H]1O[C@H](CO)[C@@H](O)[C@H](O)[C@H]1O)[C@H](O)[C@@H](O)CO
Value Unit: %
cell viability: 92.2
//
Compound: O=C(Nc1ccccc1-c1cn2c(CN3CCNCC3)csc2n1)c1cnc2ccccc2n1
Value Unit: %
cell viability: 95.6
//
Compound: CNC(=O)c1ccc(N2C(=S)N(c3ccc(C#N)c(C(F)(F)F)c3)C(=O)C2(C)C)cc1F [MDV3100 (Enzalutamide)]
Value Unit: %
cell viability: 102
//
Compound: CS(=O)(=O)N1CCN(Cc2cc3nc(-c4cccc5[nH]ncc45)nc(N4CCOCC4)c3s2)CC1
Value Unit: %
cell viability: 51.1
//
Compound: CC[C@]1(O)C[C@H]2CN(CCc3c([nH]c4ccccc34)[C@@](C(=O)OC)(c3cc4c(cc3OC)N(C=O)[C@H]3[C@@](O)(C(=O)OC)[C@H](OC(C)=O)[C@]5(CC)C=CCN6CC[C@]43[C@@H]65)C2)C1 [Vincristine Sulfate]
Value Unit: %
cell viability: 7.83
//
Compound: COC(=O)/C(=C1/OC(=O)C(c2ccccc2)=C1O)c1ccccc1
Value Unit: %
cell viability: 102
//
Compound: COC(=O)[C@@]1(C)CCC[C@]2(C)c3ccc(O)c(C(C)C)c3CCC12 (stereo not given in full)
Value Unit: %
cell viability: 109
//
Compound: O=c1c(O)c(-c2ccccc2)oc2cc(O)ccc12
Value Unit: %
cell viability: 107
//
Compound: Fc1cc(-c2cccc3ncc(-c4cnn(C5CCNCC5)c4)nc23)cc(F)c1CN1CCOCC1
Value Unit: %
cell viability: 24.6
//
Compound: CC12CCCC(O)(C1)C1CC(C)(C)C1CC2 (stereo not given)
Value Unit: %
cell viability: 111
